test: Pharmacokinetic study in rats; assay type: in vivo, male Sprague-Dawley rats; details: male, Sprague-Dawley, rat, plasma, po, 1 mg/kg
endpoint: AUC(0-inf)
Show the value, then the unit it is measured in.

Query: Find the recorded AUC(0-inf) belonging to Cc1cc(OCCCS(C)(=O)=O)cc(C)c1-c1cccc(COc2ccc(-c3cc(O)n[s+]3[O-])cc2)c1 (stereo not shown) and report it.
Reply: 1450 ng·h/mL

---

biological target: rat GPR40/FFAR1 (Rattus norvegicus, UniProt Q8K3T4); experiment: Intracellular calcium assay
Sequence (Q8K3T4 whole entry): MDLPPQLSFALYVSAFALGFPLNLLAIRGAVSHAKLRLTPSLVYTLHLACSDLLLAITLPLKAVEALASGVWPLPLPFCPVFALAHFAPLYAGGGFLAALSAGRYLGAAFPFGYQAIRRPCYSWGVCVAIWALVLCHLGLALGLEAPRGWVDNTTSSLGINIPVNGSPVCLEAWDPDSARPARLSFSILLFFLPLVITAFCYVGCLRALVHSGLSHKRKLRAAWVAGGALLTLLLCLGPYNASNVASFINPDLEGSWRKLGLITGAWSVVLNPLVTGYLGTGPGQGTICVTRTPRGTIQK
endpoint: pEC50
Would you please state pEC50, meaning minus log10 of the concentration in mol/L, as a bare number?

Query: Find the recorded pEC50 belonging to Cc1cc(OCCCS(C)(=O)=O)cc(C)c1-c1cccc(COc2ccc(-c3cc(O)n[s+]3[O-])cc2)c1 (stereo not shown) and report it.
Reply: 7.57
